Target: 17β-hydroxysteroid dehydrogenase type 1 (17β-HSD1) (Homo sapiens, UniProt P14061)
Sequence (P14061 2-328): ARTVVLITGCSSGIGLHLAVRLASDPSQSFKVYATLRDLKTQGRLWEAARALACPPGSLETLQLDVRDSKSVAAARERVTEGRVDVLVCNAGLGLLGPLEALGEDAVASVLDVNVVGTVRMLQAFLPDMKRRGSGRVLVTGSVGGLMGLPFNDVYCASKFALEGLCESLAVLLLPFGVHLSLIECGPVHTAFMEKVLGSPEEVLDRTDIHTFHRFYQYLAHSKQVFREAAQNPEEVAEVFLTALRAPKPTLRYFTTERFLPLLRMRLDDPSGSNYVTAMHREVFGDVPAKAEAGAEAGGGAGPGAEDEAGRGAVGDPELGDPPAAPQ
Test: inhibition of […]-DHEA to […]-5-diol conversion in intact T-47D cells (endogenous […]β-HSD1), TLC
Reported metric: IC50

Provide one value: measured IC50 of C[C@]12CC[C@@H]3c4ccc(CCBr)cc4CC[C@H]3[C@@H]1C[C@H](Cc1cccc(C(N)=O)c1)[C@@H]2O
770 nM
